System: 233499-124-R-J3-PDC complex spheroid growth;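 note: spheroids exposed to agents for seven days before reading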
Assay: Anticancer human tumor 233499-124-R-J3-PDC patient-derived colon adenocarcinoma cell line growth inhibition [AhR]
Settings: second compound 0.1 µM; first compound 10 µM; stronger effect = lower value
Description: Multicellular complex tumor spheroid response to aryl hydrocarbon receptor antagonists in combination with a variety of drugs and investigational agents in selected tumor cell lines […] Compounds. […] If the clinical Cmax for an agent had not been determined, the highest concentration tested was 10 microM (Table 1). […]
This section presents compounds with their documented viability, T/C values.
Give just the number in %; leave the unit off.

The examples below pair each entry with its known result.
compound	endpoint	test-value
CC1COCCN1c1cc(C2(S(C)(=N)=O)CC2)nc(-c2ccnc3[nH]ccc23)n1 (configuration not stated) + Cc1ccccc1N=Nc1ccc(NC(=O)c2ccnn2C)c(C)c1	viability, T/C	91
CC(C)c1c(-c2ccccc2)nc2c(C#N)c[nH]n2c1=O + Cc1cncc(-c2nc(NCCc3c[nH]c4ccccc34)c3ncn(C(C)C)c3n2)c1	viability, T/C	108
Nc1ccn(C2OC(CO)C(O)C2(F)F)c(=O)n1 (configuration not stated) + CC(CO)NC(=O)c1cc(-c2ccc(Cl)cc2)nn(-c2cnn(C)c2)c1=O	viability, T/C	29.7
NS(=O)(=O)OCC1CC(n2ccc3c(NC4CCc5ccccc54)ncnc32)CC1O (configuration not stated) + CC(CO)NC(=O)c1cc(-c2ccc(Cl)cc2)nn(-c2cnn(C)c2)c1=O	viability, T/C	2.89
Nc1ccccc1NC(=O)c1ccc(CNC(=O)OCc2cccnc2)cc1 + Cc1cncc(-c2nc(NCCc3c[nH]c4ccccc34)c3ncn(C(C)C)c3n2)c1	viability, T/C	4.68

viability, T/C lookup needed for CC1(C)CCC(CN2CCN(c3ccc(C(=O)NS(=O)(=O)c4ccc(NCC5CCOCC5)c([N+](=O)[O-])c4)c(Oc4cnc5[nH]ccc5c4)c3)CC2)=C(c2ccc(Cl)cc2)C1 + CC(CO)NC(=O)c1cc(-c2ccc(Cl)cc2)nn(-c2cnn(C)c2)c1=O , thanks.
25.3

Which value of viability, T/C has been reported for CC1COCCN1c1cc(C2(S(C)(=N)=O)CC2)nc(-c2ccnc3[nH]ccc23)n1 (configuration not stated) + Cc1cncc(-c2nc(NCCc3c[nH]c4ccccc34)c3ncn(C(C)C)c3n2)c1 in the records?
81.2

Bench note: what viability, T/C did COc1cc(C2c3cc4c(cc3C(OC3OC5COC(C)OC5C(O)C3O)C3COC(=O)C23)OCO4)cc(OC)c1O (configuration not stated) + Cc1cncc(-c2nc(NCCc3c[nH]c4ccccc34)c3ncn(C(C)C)c3n2)c1 show?
92.9

Requested read-out: viability, T/C. Entry: COc1cccc2c1C(=O)c1c(O)c3c(c(O)c1C2=O)CC(O)(C(=O)CO)CC3OC1CC(N)C(O)C(C)O1 (configuration not stated) + Cc1ccccc1N=Nc1ccc(NC(=O)c2ccnn2C)c(C)c1
60.2

Which viability, T/C value belongs to CC(C)c1c(-c2ccccc2)nc2c(C#N)c[nH]n2c1=O + CC(CO)NC(=O)c1cc(-c2ccc(Cl)cc2)nn(-c2cnn(C)c2)c1=O ?
105

For the compound shown here, Nc1ccccc1NC(=O)c1ccc(CNC(=O)OCc2cccnc2)cc1 + CC(CO)NC(=O)c1cc(-c2ccc(Cl)cc2)nn(-c2cnn(C)c2)c1=O , give the reported viability, T/C.
3.08

Bench note: what viability, T/C did O=C(c1cc(Cc2n[nH]c(=O)c3ccccc23)ccc1F)N1CCN(C(=O)C2CC2)CC1 + Cc1ccccc1N=Nc1ccc(NC(=O)c2ccnn2C)c(C)c1 show?
112
